target_desc: GST-LXRβ ligand-binding domain (Homo sapiens, UniProt P55055, DUP175-175)
Construct: amino acids 156-461; NP009052; made in house; host or cells: E. coli
Sequence (P55055 with tags, fused parts or gaps DUP175-175): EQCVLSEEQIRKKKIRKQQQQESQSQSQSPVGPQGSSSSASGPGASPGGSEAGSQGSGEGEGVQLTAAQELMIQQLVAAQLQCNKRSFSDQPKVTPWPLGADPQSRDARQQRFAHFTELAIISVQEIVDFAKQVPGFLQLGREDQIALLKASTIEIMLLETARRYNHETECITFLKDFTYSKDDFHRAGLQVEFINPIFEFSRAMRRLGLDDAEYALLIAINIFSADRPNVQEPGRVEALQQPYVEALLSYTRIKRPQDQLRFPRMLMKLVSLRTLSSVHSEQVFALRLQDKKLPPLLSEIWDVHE
assay_text: TR-FRETβ activity assay (LXRβ-LBD / NCoA3 coactivator peptide, prestimulated with 24(S)-25-epoxycholesterol)
Assay type: biochemical
Parameters: key: ag=agonist; ia=inverse agonist
test_settings: agonist or inverse agonist
reported_endpoint: behavior in FRET assay

Consider the following illustrative entries.
| compound | recorded_measurement |
| --- | --- |
| Cc1cc(C)c(S(=O)(=O)N(Cc2ccc(C(F)(F)F)o2)C(C)c2ccc(-c3cccc(CC(=O)O)c3)cc2)c(C)c1 (stereo not drawn) | ia |
| Cc1cc(C)c(S(=O)(=O)N(Cc2ccc(-c3cccc(C4(C(=O)O)CCOCC4)c3)cc2)Cc2ccc(C(F)(F)F)o2)c(C)c1 | ia |
| COc1ccc(S(=O)(=O)N(Cc2ccc(-c3cccc(S(=O)(=O)CC(=O)O)c3)cc2)Cc2ccc(C(F)(F)F)o2)c2c1CCCC2 | ia |
| Cc1cc(C)c(S(=O)(=O)N(Cc2ccc(-c3cccc(S(=O)(=O)CC(=O)O)c3)cc2)Cc2ccccc2C(F)(F)F)c(C)c1 | ag |
| Cc1cc(C)c(S(=O)(=O)N(Cc2ccc(-c3cccc(C(C)(C)C(=O)O)c3)cc2)c2ccc(C(F)(F)F)o2)c(C)c1 | ag |

Turning now to a further record.
Query: Please indicate behavior in FRET assay recorded for `O=C(O)CS(=O)(=O)c1cccc(-c2ccc(CN(Cc3ccc(C(F)(F)F)o3)S(=O)(=O)c3c(Cl)cccc3C(F)(F)F)cc2)c1`
Reply: ag
